METHOD SUMMARY: Pharmacokinetics, single oral gavage, Yucatan mini-pig
Format: in vivo, female Yucatan Miniature Swine
EXPERIMENTAL PARAMETERS: female, Yucatan, minipig, plasma; PO 10 mg/kg
READOUT KIND: AUC(0-t) (ng·h/mL)

{"COMPOUND": "Cc1cc(Cl)c(COc2cccc3c(-n4cc(F)cn4)cc(C)nc23)c(Cn2cccc(C#N)c2=O)n1 [CFMQ]", "NUMERIC READOUT": 10600}

----------
METHOD SUMMARY: Pharmacokinetics, single oral gavage, 2 formulations, Wistar and Sprague-Dawley rats
Format: in vivo
EXPERIMENTAL PARAMETERS: male, Wistar, rat, plasma, po, 150 mg/kg, Formulation 2, Wistar (Male)
READOUT KIND: Tmax (min)

{"ENTRY SMILES": "Cc1cc(Cl)c(COc2cccc3c(-n4cc(F)cn4)cc(C)nc23)c(Cn2cccc(C#N)c2=O)n1", "UNIT STRING": "min", "NUMERIC READOUT": 15}

Data origin: patent US20160030416A1
